Data origin: patent US20230141988A1

protocolText: in vivo
experimentalSetup: male, C57BL/6J, mouse, po, 25 mg/kg, Plasma concentration, male C57BL/6J mice, single oral dose 25 mg/kg, 1 h, G2
propertyMeasured: concentration at 1 h (µg/mL)
Give just the numeric value; µg/mL need not be written.

concentration at 1 h in this record for "CN1CCc2cccc3c2[C@@H]1Cc1ccc(O)c(O)c1-3" : 0.162

----------
protocolText: in vivo
experimentalSetup: male, C57BL/6J, mouse, po, 25 mg/kg, Plasma concentration, Mean, male C57BL/6J mice, single oral dose 25 mg/kg, 2 h
propertyMeasured: concentration at 2 h (µg/mL)
// note: answer is a bare numeric in µg/mL

Reported concentration at 2 h ( "CN1CCc2cccc3c2[C@@H]1Cc1ccc(O)c(O)c1-3" ) = 0.122
